Target Under Test: SST5 (Homo sapiens)
Sequence (P35346 whole entry, species assumed): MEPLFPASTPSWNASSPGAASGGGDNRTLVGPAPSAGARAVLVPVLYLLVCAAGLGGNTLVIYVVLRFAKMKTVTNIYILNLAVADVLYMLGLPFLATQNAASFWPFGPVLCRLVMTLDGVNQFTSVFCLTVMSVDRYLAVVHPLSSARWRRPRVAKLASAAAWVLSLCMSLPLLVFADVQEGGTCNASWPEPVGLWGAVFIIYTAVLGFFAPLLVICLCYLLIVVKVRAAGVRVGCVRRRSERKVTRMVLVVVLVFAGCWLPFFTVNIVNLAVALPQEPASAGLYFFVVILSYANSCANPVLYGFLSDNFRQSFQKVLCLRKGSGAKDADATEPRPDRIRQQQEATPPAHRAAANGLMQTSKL
Assay: Receptor functional assay
Condition Details: agonist
Description: The binding IC50, functional effect, and functional EC50 of TA1-1B on exemplary receptors was determined.
pEC50: −log10 of the molar value.
Value Kind: pEC50

- Molecule: "CN1CCC[C@H]1CCNC(=O)c1cn2c3c(c(N4CCC(c5cnccn5)C4)c(F)cc3c1=O)Oc1cc3ccccc3cc1-2 (stereo partly shown)"
  Target Under Test: "SST5 (Homo sapiens)"
  Readout Value: 5.33

----------
Tested on: SUDHL4
Assay: Inhibition of cell proliferation (MTT)
Assay type: cell-based
Condition Details: Homo sapiens, SU-DHL-4; SUDHL4, Lymphoma; 48 hours
Method: Inhibition of cell proliferation is determined in human tumor cell lines. Innoculation density and doubling times for specific cell lines are listed at World Wide Web URL “dtp.nci.nih.gov/docs/misc/common_files/cell_list.html.” • 1. Plate adherent cells the day before starting the experiment in 180 μl growth media (see list hereafter). • 2. Day of experiment, count and plate suspension cells in 180 μl growth media (see list on next page). • 3. […]

- Compound: "CN1CCC[C@H]1CCNC(=O)c1cn2c3c(c(N4CCC(c5cnccn5)C4)c(F)cc3c1=O)Oc1cc3ccccc3cc1-2 (stereo partly shown)"
  Target Under Test: "SUDHL4"
  EC50: "1.34 µM"
